Assay Text: Solubility of the compound in Japanese pharmacopoeia first fluid at pH 1.2 at 10 mM after 12 hrs
Format: physicochemical
Classify as follows. Reported solubility at 12 h, 10000 µM greater than or equal to 700 µg/mL: Yes. Reported solubility at 12 h, 10000 µM below: No.

Examples with answers:
CC(C)N1CCc2nc(C(=O)Nc3c(CCC(=O)Nc4ccc(Cl)cc4)cccc3C(=O)O)sc2C1 : Yes
CC(C)N1CCc2nc(C(=O)Nc3cc(C(=O)O)cc(F)c3CCC(=O)Nc3ccc(Cl)cc3)sc2C1 : Yes
CC(C)N1CCc2nc(C(=O)Nc3cc(C(=O)O)cc(Cl)c3CCC(=O)Nc3ccc(Cl)cc3)sc2C1 : No

// inclusive: solubility at 12 h, 10000 µM at least 700 µg/mL? input: COc1cc(C(=O)O)cc(NC(=O)c2nc3c(s2)CN(C(C)C)CC3)c1CCC(=O)Nc1ccc(Cl)cc1
Yes

// inclusive: solubility at 12 h, 10000 µM at least 700 µg/mL? input: CCOc1cc(C(=O)O)cc(NC(=O)c2nc3c(s2)CN(C(C)C)CC3)c1CCC(=O)Nc1ccc(Cl)cc1
No

// inclusive: solubility at 12 h, 10000 µM at least 700 µg/mL? input: CNC(=O)c1cccc(CNC(=O)c2ccc(Cl)s2)c1NC(=O)c1nc2c(s1)CN(C)CC2
Yes

// inclusive: solubility at 12 h, 10000 µM at least 700 µg/mL? input: CC(C)N1CCc2nc(C(=O)Nc3cc(C(=O)O)ccc3CCC(=O)Nc3ccc(Br)cc3)sc2C1
No

// inclusive: solubility at 12 h, 10000 µM at least 700 µg/mL? input: CC(C)Oc1cc(C(=O)O)cc(NC(=O)c2nc3c(s2)CN(C(C)C)CC3)c1CCC(=O)Nc1ccc(Cl)cc1
No

// inclusive: solubility at 12 h, 10000 µM at least 700 µg/mL? input: CN1CCc2nc(C(=O)Nc3c(CNC(=O)c4ccc(Cl)s4)cccc3C(N)=O)sc2C1
Yes

// inclusive: solubility at 12 h, 10000 µM at least 700 µg/mL? input: CN1CCc2nc(C(=O)Nc3cc(-c4nnn[nH]4)ccc3CNC(=O)c3ccc(Cl)s3)sc2C1
No

====

Assay Text: Bioavailability in monkey at 1 mg/kg, iv after 24 hrs by LC-MS/MS analysis
Format: ADME, organism-based, Macaca mulatta
Run Conditions: rhesus monkey, in vivo
Metric Name: bioavailability

CC(C)N1CCc2nc(C(=O)Nc3cc(C(=O)O)ccc3CNC(=O)c3ccc(Cl)s3)sc2C1 : 51%
CC(C)N1CCc2nc(C(=O)Nc3cc(C(=O)O)ccc3CCC(=O)Nc3ccc(Cl)cc3)sc2C1 : 67%

Moving on to another molecule below.
I'd like to know its bioavailability. The molecule in question is CC(C)N1CCc2nc(C(=O)Nc3cc(C(=O)O)cc(Cl)c3CCC(=O)Nc3ccc(Cl)cc3)sc2C1
52%

====

Assay Text: Solubility of the compound in Japanese pharmacopoeia first fluid at pH 1.2 at 10 mM after 12 hrs
Type: physicochemical
Please respond with reported solubility at 12 h, 10000 µM for every item in the list.
Answers are plain numbers, in µg/mL.

Reference set, count: 3
CC(C)N1CCc2nc(C(=O)Nc3cc(C(=O)O)cc(C(F)(F)F)c3CCC(=O)Nc3ccc(Cl)cc3)sc2C1 : 700
CN1CCc2nc(C(=O)Nc3cc(C(=O)O)ccc3CNC(=O)c3ccc(Cl)s3)sc2C1 : 55
CN1CCc2nc(C(=O)Nc3cc(C(=O)O)ccc3CCC(=O)Nc3ccc(Cl)cn3)sc2C1 : 250

Can you give me solubility at 12 h, 10000 µM for all of these, one by one?
1. CC(CF)N1CCc2nc(C(=O)Nc3cc(C(=O)O)ccc3CNC(=O)c3ccc(Cl)s3)sc2C1 (centres undefined)
2. O=C(NCc1cccc(C(=O)O)c1NC(=O)c1nc2c(s1)COCC2)c1ccc(Cl)s1
3. COCC(C)N1CCc2nc(C(=O)Nc3cc(C(=O)O)ccc3CNC(=O)c3ccc(Cl)s3)sc2C1 (centres undefined)
4. CC(C)N1CCc2nc(C(=O)Nc3cc(C(=O)O)ccc3CCC(=O)Nc3ccc(F)cc3)sc2C1

[160, 2, 610, 980]

Can you give me solubility at 12 h, 10000 µM for all of these, one by one?
1. CC(C)N1CCc2nc(C(=O)Nc3cc(C(=O)O)ccc3CCC(=O)Nc3ccc(Cl)cn3)sc2C1
2. O=C(O)c1ccc(CNC(=O)c2ccc(Cl)s2)c(NC(=O)c2nc3c(s2)CN(C(CF)CF)CC3)c1

1: 810; 2: 120
